Reference source for all entries: patent US20250093263A1

Structures can show the parent of a compound that is named as a salt.
IC50 tested on WT Keap1 (tag-free, full-length) (Homo sapiens): recorded values
Sequence (Q14145 whole entry): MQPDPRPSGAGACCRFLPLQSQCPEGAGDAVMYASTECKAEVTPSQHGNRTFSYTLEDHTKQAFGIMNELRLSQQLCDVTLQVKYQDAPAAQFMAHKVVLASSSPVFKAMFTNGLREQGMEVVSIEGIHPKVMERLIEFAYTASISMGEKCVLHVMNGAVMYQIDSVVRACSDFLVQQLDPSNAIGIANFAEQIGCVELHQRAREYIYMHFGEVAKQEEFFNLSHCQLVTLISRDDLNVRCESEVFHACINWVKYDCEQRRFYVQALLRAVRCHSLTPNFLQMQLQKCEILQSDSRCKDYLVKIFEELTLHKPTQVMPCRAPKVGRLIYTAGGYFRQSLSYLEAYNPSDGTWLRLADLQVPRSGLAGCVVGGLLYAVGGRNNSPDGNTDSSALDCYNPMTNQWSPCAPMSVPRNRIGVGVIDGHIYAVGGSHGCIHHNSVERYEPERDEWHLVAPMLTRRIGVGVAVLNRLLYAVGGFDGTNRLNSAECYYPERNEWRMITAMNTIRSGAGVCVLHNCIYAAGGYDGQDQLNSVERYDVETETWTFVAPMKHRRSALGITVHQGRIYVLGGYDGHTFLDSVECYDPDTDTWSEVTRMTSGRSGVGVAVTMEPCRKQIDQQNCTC
Could you give me the number in µM? Just the number is fine.

[[record]]
molecule = "COC(=O)[C@]12CCC(C)(C)C[C@H]1[C@H]1C(=O)C=C3[C@@]4(C)C=C(C#N)C(=O)C(C)(C)[C@@H]4CC[C@@]3(C)[C@]1(C)CC2"
value_units = "µM"
reported_result = 0.024


Then there is this molecule:
(Q) Query IC50 on WT Keap1 (tag-free, full-length) (Homo sapiens) for COC(=O)/C=C/C(=O)OC [DMF, dimethyl fumarate]
(A) 129

----------
molecular target: Keap1 (His/GST) (Homo sapiens, UniProt Q14145); experiment: Keap1 TR-FRET Assay 3 (CDDO-FITC/Tb-Anti-6xHis); assay type: binding
Sequence (Q14145 whole entry): as the sequence (Q14145 whole entry) above
Structures can show the parent of a compound that is named as a salt.
Label met when IC50 is strictly below 10 nM; at or above that, label not met.

[[record]]
compound = "COC(=O)/C=C/C(=O)OC [DMF, dimethyl fumarate]"
class_assignment = "not met"


(Q) Confirm or reject: IC50 of `CC1(C)CC[C@]2(C(=O)O)CC[C@]3(C)[C@H](C(=O)C=C4[C@@]5(C)C=C(C#N)C(=O)C(C)(C)[C@@H]5CC[C@]43C)[C@@H]2C1` lies strictly below 10 nM
(A) met

(Q) Check if IC50 falls below 10 nM for Cc1sc2c(c1C)C(c1ccc(Cl)cc1)=NC(CC(=O)NCCCOCCOCCOCCCNC(=O)[C@]13CCC(C)(C)C[C@H]1[C@H]1C(=O)C=C4[C@@]5(C)C=C(C#N)C(=O)C(C)(C)[C@@H]5CC[C@@]4(C)[C@]1(C)CC3)c1nnc(C)n1-2 (some centres unmarked) .
(A) not met

(Q) Would you kindly verify if IC50 of `COC1=CC(=O)C(O)=C/C1=C\C=C\c1ccccc1` is strictly less than 10 nM?
(A) not met

(Q) For this compound, is IC50 lower than 10 nM? `COC(=O)[C@]12CCC(C)(C)C[C@H]1[C@H]1C(=O)C=C3[C@@]4(C)C=C(C#N)C(=O)C(C)(C)[C@@H]4CC[C@@]3(C)[C@]1(C)CC2`
(A) not met

----------
target: PfcProRS (Plasmodium falciparum, UniProt Q8I5R7); construct: made in house; host or cells: SoluBL-21 E. coli; experiment: biochemical; type: binding; details: dose-titration of ATP and proline against tracer MAT379; read-out: PfcProRS KD of substrates
Sequence (Q8I5R7 249-746): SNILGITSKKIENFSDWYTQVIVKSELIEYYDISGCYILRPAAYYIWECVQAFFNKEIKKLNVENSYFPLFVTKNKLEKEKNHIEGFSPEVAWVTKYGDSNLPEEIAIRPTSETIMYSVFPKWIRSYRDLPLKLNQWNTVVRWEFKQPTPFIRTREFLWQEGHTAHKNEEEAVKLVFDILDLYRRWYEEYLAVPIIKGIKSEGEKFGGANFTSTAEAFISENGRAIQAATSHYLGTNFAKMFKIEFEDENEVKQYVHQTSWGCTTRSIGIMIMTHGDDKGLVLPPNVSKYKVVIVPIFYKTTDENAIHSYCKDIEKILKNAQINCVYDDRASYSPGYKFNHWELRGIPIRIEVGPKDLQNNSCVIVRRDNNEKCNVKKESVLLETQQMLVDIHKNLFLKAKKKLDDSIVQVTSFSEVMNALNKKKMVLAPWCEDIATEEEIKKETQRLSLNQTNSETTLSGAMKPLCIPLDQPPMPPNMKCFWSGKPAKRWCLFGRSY
property measured: Kd (µM)
Write the answer as a number in µM, unit excluded.

[[record]]
smiles_entry = "Nc1ncnc2c1ncn2[C@@H]1O[C@H](COP(=O)(O)OP(=O)(O)OP(=O)(O)O)[C@@H](O)[C@H]1O"
property_measured = "Kd"
value_units = "µM"
reported_result = 892


Please turn your attention to the following entry.
(Q) Give the reported Kd for `O=C(O)[C@@H]1CCCN1` (system: PfcProRS (Plasmodium falciparum, UniProt Q8I5R7)).
(A) 457

----------
target: MtbPheRS (Mycobacterium tuberculosis phenylalanyl-tRNA synthetase) (Mycobacterium tuberculosis); construct: made in house; host or cells: Mycobacterium; assay: PheRS activity-based assay, MtbPheRS; format: biochemical
Sequence (P9WFU3 whole entry): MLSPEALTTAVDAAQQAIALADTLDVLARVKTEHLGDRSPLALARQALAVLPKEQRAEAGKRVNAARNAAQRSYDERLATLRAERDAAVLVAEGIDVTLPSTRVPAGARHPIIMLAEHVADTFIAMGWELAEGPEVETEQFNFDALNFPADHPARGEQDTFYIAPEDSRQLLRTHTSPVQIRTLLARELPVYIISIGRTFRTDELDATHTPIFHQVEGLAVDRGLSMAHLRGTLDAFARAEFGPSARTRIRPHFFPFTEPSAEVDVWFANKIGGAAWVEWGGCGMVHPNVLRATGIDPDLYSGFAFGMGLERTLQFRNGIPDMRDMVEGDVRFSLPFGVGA
Sequence (P9WFU1 whole entry, further chain): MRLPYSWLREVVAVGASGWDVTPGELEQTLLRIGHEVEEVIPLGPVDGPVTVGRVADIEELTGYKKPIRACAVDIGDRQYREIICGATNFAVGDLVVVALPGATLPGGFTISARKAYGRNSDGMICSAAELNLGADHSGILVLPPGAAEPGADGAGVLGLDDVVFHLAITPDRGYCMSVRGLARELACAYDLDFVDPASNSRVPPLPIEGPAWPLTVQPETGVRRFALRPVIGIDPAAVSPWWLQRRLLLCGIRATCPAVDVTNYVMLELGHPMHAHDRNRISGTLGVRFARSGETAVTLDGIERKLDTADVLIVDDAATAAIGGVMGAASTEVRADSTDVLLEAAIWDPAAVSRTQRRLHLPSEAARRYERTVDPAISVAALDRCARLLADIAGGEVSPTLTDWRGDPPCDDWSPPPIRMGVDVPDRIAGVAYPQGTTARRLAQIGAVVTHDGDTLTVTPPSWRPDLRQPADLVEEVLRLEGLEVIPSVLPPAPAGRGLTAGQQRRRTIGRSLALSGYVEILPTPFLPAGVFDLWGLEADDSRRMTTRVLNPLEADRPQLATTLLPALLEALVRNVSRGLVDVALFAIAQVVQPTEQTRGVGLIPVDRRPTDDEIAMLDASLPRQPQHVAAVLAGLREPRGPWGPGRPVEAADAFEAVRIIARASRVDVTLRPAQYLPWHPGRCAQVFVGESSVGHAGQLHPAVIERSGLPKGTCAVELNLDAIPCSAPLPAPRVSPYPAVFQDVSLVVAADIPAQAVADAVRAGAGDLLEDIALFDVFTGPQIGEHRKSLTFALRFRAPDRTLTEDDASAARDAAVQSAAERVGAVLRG
property measured: pIC50
Reminder that pIC50 is minus the log10 of a molar concentration.

(Q) Could you tell me which pIC50 is on file for `Nc1ncnc2c1ncn2[C@@H]1O[C@H](CNS(=O)(=O)NC(=O)[C@@H](N)Cc2ccccc2)[C@@H](O)[C@H]1O` ?
(A) 5.70

----------
target: PfcProRS (Plasmodium falciparum, UniProt Q8I5R7); construct: made in house; host or cells: SoluBL-21 E. coli; assay: biochemical; assay type: binding; conditions: PfcProRS (KD [nM]) −, absence of substrates
property measured: Kd
Remember to quote the unit after the number.

Use the examples below as a reference point.
[[record]]
smiles_entry = "CC(C)(C)OC(=O)N1CCC[C@H]1C(=O)NCC1CCN(C(=O)Nc2nccnc2C(=O)NC2Cc3ccccc3C2)CC1"
property_measured = "Kd"
reported_result = "6.67 nM"

[[record]]
smiles_entry = "O=C(NC1Cc2ccccc2C1)c1nccnc1NC(=O)N1CCC(NC(=O)[C@@H]2CCCN2)CC1"
property_measured = "Kd"
reported_result = "1380 nM"

[[record]]
smiles_entry = "O=C(NC1Cc2ccccc2C1)c1nccnc1NC(=O)N1CCC(CNC(=O)[C@@H]2CCCN2)CC1"
property_measured = "Kd"
reported_result = "39.8 nM"

[[record]]
smiles_entry = "O=C(CCCCCNC(=S)Nc1ccc(C(=O)O)c(-c2c3ccc(=O)cc-3oc3cc(O)ccc23)c1)NCC1CCN(C(=O)Nc2nccnc2C(=O)NC2Cc3ccccc3C2)CC1"
property_measured = "Kd"
reported_result = "199 nM"

[[record]]
smiles_entry = "CC(C)(C)OC(=O)N1CCC[C@H]1C(=O)NC1CCN(C(=O)Nc2nccnc2C(=O)NC2Cc3ccccc3C2)CC1"
property_measured = "Kd"
reported_result = "2300 nM"


# evaluate next
(Q) # input molecule: `CC(C)(C)OC(=O)NC1CCN(C(=O)Nc2nccnc2C(=O)NC2Cc3ccccc3C2)CC1` ; wanted: its Kd
(A) 13.1 nM

----------
biological target: HDAC1 Recombinant (Homo sapiens, UniProt Q13547); experiment: HDAC1 enzymatic activity assay with recombinant protein; settings: 5 nM HDAC1, 18 μM MAZ1600 substrate (3 × KM), 3 h incubation
Sequence (Q13547 whole entry): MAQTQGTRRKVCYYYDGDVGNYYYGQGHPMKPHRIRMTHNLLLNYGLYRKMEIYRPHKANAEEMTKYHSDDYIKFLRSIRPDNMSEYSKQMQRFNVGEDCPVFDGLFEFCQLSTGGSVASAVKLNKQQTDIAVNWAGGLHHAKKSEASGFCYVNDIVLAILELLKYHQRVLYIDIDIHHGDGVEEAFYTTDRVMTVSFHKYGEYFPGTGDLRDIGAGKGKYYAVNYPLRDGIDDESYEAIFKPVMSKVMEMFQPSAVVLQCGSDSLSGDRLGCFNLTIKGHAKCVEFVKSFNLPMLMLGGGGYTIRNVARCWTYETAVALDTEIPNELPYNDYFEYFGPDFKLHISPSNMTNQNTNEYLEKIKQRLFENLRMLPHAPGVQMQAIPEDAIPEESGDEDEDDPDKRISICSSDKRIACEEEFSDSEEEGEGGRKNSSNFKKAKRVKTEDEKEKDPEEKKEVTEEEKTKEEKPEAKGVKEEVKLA
property measured: IC50 (nM)
Report the value in nM with no unit label.

(Q) Looking for the measured IC50 of O=C(CCCCCCC(=O)Nc1ccc(CNC(=O)c2ccc(C(=O)O)c(C3=c4cc5c6c(c4Oc4c3cc3c7c4CCCN7CCCC3)CCC[N+]=6CCCC5)c2)cc1)NO [SAHA-NCT] , can you help?
(A) 8
